Listed compounds paired with reported AC50
system: HMLE_sh_eGFP viability, CellTiter-Glo luminescence, 72 h; assay: cytotoxicity in HMLE control line with eGFP shRNA, dose response, counter-screen for HMLE_sh_ECad selective toxicity project, cell-based, HMLE_sh_eGFP, luminescence (AID 463074);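 further: counterscreen control line to flag general toxicity for the HMLE_sh_ECad screen; potency for loss of viability as luminescence drops below DMSO wells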
Calls of active or inactive are those of the source.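 How the source made its calls: active means AC50 no more than tenfold above the top dose tested, or full inhibition at every dose with a flat fit (cut at about 19 µM in these data); inconclusive means flat curve fit with inhibition between 30% and 70%, or poor fit; inactive means AC50 more than tenfold above the top dose tested.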

CCCCCc1cc(=O)oc2c(C(CCN3CCCCC3)c3ccc(OC)cc3)c(OC)cc(OC)c12 (stereo not given); 7.47 µM

Could you please provide reported AC50 for CCNc1nc(NCC)n2c(SC(C(=O)Nc3cc(Cl)cc(Cl)c3)c3ccccc3)nnc2n1 (stereo not given) ? Thanks!
3.52 µM

Quote AC50 reported for COc1ccc([N+](=O)[O-])cc1Nc1c2ccccc2nc2ccccc12 please.
1.43 µM

Please report AC50 for the following compound: COc1ccc(Cn2nnnc2C(C(C)C)N(Cc2ccco2)Cc2cccs2)cc1 (stereo not given)
> 19.5 µM (inactive)

// Input: Cc1ccc(N/N=C/c2c(O)n(-c3ccccc3)c(=O)[nH]c2=O)cc1 . Output its AC50 only.
3.87 µM

Find the measured AC50 of COc1ccc(OC)c(C(=O)/C=C/c2ccccc2C(F)(F)F)c1 and report it.
6.67 µM

Fill in reported AC50 for this entry: Cc1ccc(-c2nc(CS(=O)CC(=O)NCc3ccc4c(c3)OCO4)c(C)o2)cc1 (stereo not given)
> 19.5 µM (inactive)

---

test system: HMLE_sh_eGFP viability, CellTiter-Glo luminescence, 72 h; experiment: cytotoxicity in HMLE control line with eGFP shRNA, dose response, counter-screen for HMLE_sh_ECad selective toxicity project, cell-based, HMLE_sh_eGFP, luminescence (AID 463074)
Activity calls are given as the source filed them.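 The calls were made as follows: active = AC50 no more than tenfold above the top dose tested, or full inhibition at every dose with a flat fit (cut at about 19 µM in these data); inconclusive = flat curve fit with inhibition between 30% and 70%, or poor fit; inactive = AC50 more than tenfold above the top dose tested.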
Please reply with one of these outcomes: True for active, False for inactive

Consider the following illustrative entries.
C=CCC[C@H](Cc1ccc(F)cc1)C(=O)OC[C@@H](Cc1c[nH]c2ccccc12)NC(=O)[C@H](CC=C)CC(=O)N(CCO)Cc1ccccc1; True
Cc1ccc(COc2ccc(Br)cc2/C=N/O)cc1; True
CCCCN(CCCC)CCC(O)c1cc2c(Cl)cc(Cl)cc2c2cc(C(F)(F)F)ccc12 (stereo not given); True
Cc1nn(-c2ccccc2)c(C)c1/C=N/NC(=O)c1cc(-c2ccc(Br)s2)[nH]n1; True
Cc1cccn2c(/C=N/OCc3cccc(F)c3)c(-c3ccc(Cl)cc3)nc12; True
COc1ccc(-c2csc(NC(=S)NC(=O)/C=C/c3ccco3)n2)cc1OC; True
CC(C)c1cc(-c2cc(-c3ccccc3)on2)nc(NC2CCCC2)n1; True
C/C(CC(=O)Nc1ccc(Cl)c(C(F)(F)F)c1)=N\NC(=O)c1cc2ccccc2cc1O; True
CSc1ccccc1C(=O)Nc1cc(C)ccc1C; False

Consider the record given below.
Lab log entry: COc1ccc(C(=O)NCC2(c3ccccc3)CCCC2)c(OC)c1 — outcome as called in the assay?
True

---

test system: HMLE_sh_eGFP viability, CellTiter-Glo luminescence, 72 h; test: cytotoxicity in HMLE control line with eGFP shRNA, dose response, counter-screen for HMLE_sh_ECad selective toxicity project, cell-based, HMLE_sh_eGFP, luminescence (AID 463074)
READOUT LABEL: AC50

See these solved cases before continuing.
COc1cc([C@@H]2c3cc4c(cc3[C@@H](O)[C@H]3COC(=O)[C@H]23)OCO4)cc(OC)c1O[Si](C)(C)C(C)(C)C; 6.76 µM
CCNS(=O)(=O)c1ccc(NC(=O)Nc2cccc(C(F)(F)F)c2)cc1; 13.5 µM
O=C(CSCc1cccc(Br)c1)N/N=C/c1ccc2c(c1)OCO2; 5.34 µM
COc1cc(NC2CCCCC2O)c2nc(-c3ccc(Cl)cc3)ccc2c1 (stereo not given); 5.65 µM

Provide measured AC50 value, entry: FC(F)(F)c1ccc(-c2noc(CN3CCCN(C4CCCCC4)CC3)n2)cc1
7.39 µM

---

tested on: HMLE_sh_eGFP viability, CellTiter-Glo luminescence, 72 h; assay: cytotoxicity in HMLE control line with eGFP shRNA, dose response, counter-screen for HMLE_sh_ECad selective toxicity project, cell-based, HMLE_sh_eGFP, luminescence (AID 463074);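 active = AC50 no more than tenfold above the top dose tested, or full inhibition at every dose with a flat fit (cut at about 19 µM in these data); inconclusive = flat curve fit with inhibition between 30% and 70%, or poor fit; inactive = AC50 more than tenfold above the top dose tested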
Mark one answer only. Choices: active, inactive

O=[N+]([O-])c1nn(-c2ccc3c(c2)OCCO3)n(O)c1=NCCC1=CCCCC1; active
Cc1cc(-c2ccccc2)nc(N/N=C/c2ccc(O)cc2O)n1; active
c1ccc(-c2sc3ccccc3c2-c2ccc(OCCN3CCOCC3)cc2)cc1; active

Assay result, entry CC(C)(C)OC(=O)NCCc1nnc(S(=O)(=O)Cc2ccc(Cl)cc2Cl)o1 — outcome?
active

How was O=C1NC(=O)N(Cc2ccccc2)C(=O)/C1=C/C=C/c1ccco1 classified in this test?
active

// return assay outcome for Clc1ccc(-c2nnnn2-c2ccc(Cl)c(Cl)c2)cc1Cl
active

Which result was noted for this molecule in the test: C(=N\Nc1ncnc2sc3c(c12)CCC3)/c1cccs1
active

For O=C(Nc1ccc(Cl)c(Cl)c1)O/N=C/c1ccncc1 , which call appears in the assay record?
active

State the result this test recorded for Cc1ccc(C)c(S(=O)(=O)N2CCN(c3ncnc4sccc34)CC2)c1 .
active

---

test system: HMLE_sh_eGFP viability, CellTiter-Glo luminescence, 72 h; test: cytotoxicity in HMLE control line with eGFP shRNA, dose response, counter-screen for HMLE_sh_ECad selective toxicity project, cell-based, HMLE_sh_eGFP, luminescence (AID 463074);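 further: counterscreen control line to flag general toxicity for the HMLE_sh_ECad screen; potency for loss of viability as luminescence drops below DMSO wells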
READOUT LABEL: AC50

Observe how each entry below is paired with its result.
O=C(/C=C/c1ccccc1)/C=C/c1ccccc1; 2.84 µM
CC(C)CN=C(NS(=O)(=O)c1ccccc1)C(Cl)(Cl)Cl; 3.27 µM
CCc1ccc(CNC(=O)C2CCN(c3nnc(C)c4c(C)n(-c5ccc(C)cc5)nc34)CC2)cc1; 4.14 µM

Look up and state reported AC50 for CN(C)CCOc1ccc(C(C)(C)c2ccccc2)cc1
5.19 µM

Retrieve AC50 measured for C=C(C)[C@@H]1CC[C@]2(C(=O)O)CC[C@]3(C)C(CCC4[C@@]5(C)CC[C@H](O)C(C)(C)C5CC[C@]43C)C12 (stereo not given in full) and print it.
5.71 µM

Report AC50 for O=C(Nc1ccc2nc3n(c(=O)c2c1)CCCCC3)c1cc([N+](=O)[O-])ccc1F
6.62 µM

Output measured AC50 for this item: O=c1cc(NS(=O)(=O)c2ccccc2)nc(SCc2ccc(Cl)cc2)[nH]1
5.9 µM

Return value of AC50 for input Cc1ccc2c(c1)c1c(n2CC(O)CNC2CCCCC2)CCCC1 (stereo not given) , no commentary.
8.31 µM

Return reported AC50. Input compound: COc1cccc(C2C3=C(N=c4s/c(=C\c5cccc(O)c5)c(=O)n42)c2ccccc2CC3)c1OC (stereo not given)
8.57 µM

Give the reported AC50 for this compound. O=C(/C=C/c1ccccc1)NC(=S)NNC(=O)c1cnccn1
6.84 µM

---

tested on: HMLE_sh_eGFP viability, CellTiter-Glo luminescence, 72 h; assay: cytotoxicity in HMLE control line with eGFP shRNA, dose response, counter-screen for HMLE_sh_ECad selective toxicity project, cell-based, HMLE_sh_eGFP, luminescence (AID 463074);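 further: counterscreen control line to flag general toxicity for the HMLE_sh_ECad screen; potency for loss of viability as luminescence drops below DMSO wells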;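 active = AC50 no more than tenfold above the top dose tested, or full inhibition at every dose with a flat fit (cut at about 19 µM in these data); inconclusive = flat curve fit with inhibition between 30% and 70%, or poor fit; inactive = AC50 more than tenfold above the top dose tested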
Respond with a class label; see active, inactive

Some entries whose results are on file:
C/C(=N\Nc1ccccc1)c1c(O)n(C)c(=O)n(C)c1=O; active
O=S(=O)(c1cnc(Cl)c(Br)c1)N1CCc2ccccc21; active
CN(CC(=O)Nc1cccc(F)c1)C(=O)c1cn(-c2ccccc2)nc1-c1ccc(Cl)cc1; active
CC1CC/C(=C\c2ccc3c(c2)OCO3)C(=O)/C1=C/c1ccc2c(c1)OCO2 (stereo not drawn); active
COC(=O)c1sc(-c2ccc(C(C)(C)C)cc2)cc1NC(=O)/C=C/C(=O)O; active

# lookup: test call for Oc1ccc(Br)cc1-c1cc(-c2ccccc2)n[nH]1
active

Record request — test call for COc1ccc(-c2nn(-c3ccccc3)cc2C(=O)N(C)CC(=O)Nc2cccc(F)c2)cc1
active

Assay result, entry CCC1CSC(Nc2ccc(C(=O)/C=C/c3ccc(Br)cc3)cc2)=N1 (stereo not drawn) — outcome?
active

Would you mind telling me which call this test gave CCOC(=S)SCC(=O)Nc1nc(-c2ccc(Br)cc2)cs1 ?
active

Given O=C(Nc1ccccc1)NN(C(=O)CCl)c1ccccc1 , state the outcome it received in this test.
active

Can you look up the reported call for NS(=O)(=O)c1ccc(N=Cc2c(O)n(C3CCCCC3)c(=O)n(C3CCCCC3)c2=O)cc1 for me?
active

---

tested on: HMLE_sh_eGFP viability, CellTiter-Glo luminescence, 72 h; assay: cytotoxicity in HMLE control line with eGFP shRNA, dose response, counter-screen for HMLE_sh_ECad selective toxicity project, cell-based, HMLE_sh_eGFP, luminescence (AID 463074);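 further: counterscreen control line to flag general toxicity for the HMLE_sh_ECad screen; potency for loss of viability as luminescence drops below DMSO wells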
Active and inactive are the calls of the source.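 The calls were made as follows: active = AC50 no more than tenfold above the top dose tested, or full inhibition at every dose with a flat fit (cut at about 19 µM in these data); inconclusive = flat curve fit with inhibition between 30% and 70%, or poor fit; inactive = AC50 more than tenfold above the top dose tested.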
READOUT LABEL: AC50

Solved cases (5 shown):
Cc1ccc(C(=O)N/C(=C\c2ccc(-c3ccc(Br)cc3)o2)C(=O)NCCCN(C)C)cc1; 4.38 µM
CCOc1ccc(NC(=O)Nc2ccc(Cc3ccncc3)cc2)cc1; 7.84 µM
O=C(NNC(=O)c1cc(Cl)ccc1O)c1ccc(NS(=O)(=O)c2cccs2)cc1; 8.13 µM
Cc1cccc(NC(=O)c2nc[nH]c2C(=O)N[C@H](C)c2ccccc2)c1; 7.13 µM
O=[N+]([O-])c1cccc(-c2csc(Nc3ccccc3)n2)c1; 3.88 µM

Specify the recorded AC50 for O=C(Nc1ccc(O)c(-c2nc3ccccc3o2)c1)C1(c2ccc(Br)cc2)CCCC1 , system: HMLE_sh_eGFP viability, CellTiter-Glo luminescence, 72 h.
> 19.5 µM (inactive)

# assay system HMLE_sh_eGFP viability, CellTiter-Glo luminescence, 72 h: give AC50 of CCCCSc1nc(C)cc(SCC(=O)N/N=C/c2cccc(OC)c2O)n1
11.8 µM

# assay system HMLE_sh_eGFP viability, CellTiter-Glo luminescence, 72 h: give AC50 of O=C(NC(NC(=S)Nc1cccc(Cl)c1)C(Cl)(Cl)Cl)OCc1ccccc1 (stereo not given)
3.93 µM

# return AC50 for O=C(NCc1ccc(Cl)cc1)c1cccc(NC(=O)c2ccccc2)c1 , test system: HMLE_sh_eGFP viability, CellTiter-Glo luminescence, 72 h
6.79 µM

Supply AC50 measured with HMLE_sh_eGFP viability, CellTiter-Glo luminescence, 72 h for Cc1occc1C(=O)Nc1ccc(OCc2ccccc2)cc1 .
6.25 µM
